Item-by-item account of AUC(0-t)
experiment: Pharmacokinetic experiment of the compounds in mice; assay type: in vivo; conditions: mouse, plasma, 2 mg/kg; Male CD-1 mice, fasting, intravenous injection, 2 mpk; read-out: Exposure AUC0-last
assay endpoint: AUC(0-t) (µM·h)

>>> print(df.to_string())
                            chemical_string  endpoint_value
0  CC1(C)[C@H](NC(=O)/C(=N\O[C@@H](COc2ccc3c(c2)CN(C(=N)N(CCCN)CCCN)C3)C(=O)O)c2csc(N)n2)C(=O)N1OS(=O)(=O)O            5.77
1  CC1(C)[C@H](NC(=O)/C(=N\OCCOc2ccc3c(c2)CN(C(=N)N(CCCN)CCCN)C3)c2csc(N)n2)C(=O)N1OS(=O)(=O)O              11
2  CC1(C)[C@H](NC(=O)/C(=N\O[C@@H](COc2ccc3c(c2)CN(C(=N)NCCCN)C3)C(=O)O)c2csc(N)n2)C(=O)N1OS(=O)(=O)O            4.95
3  CC1(C)[C@H](NC(=O)/C(=N\OCCOc2ccc3c(c2)CN(C(=N)NCCCN)C3)c2csc(N)n2)C(=O)N1OS(=O)(=O)O            6.73

---

Listing of entries alongside the reported MIC.
test system: Pseudomonas aeruginosa C745; assay: MIC on clinically isolated bacteria; type: cell-based; conditions: read-out: MIC

compound	MIC
CC1(C)[C@H](NC(=O)/C(=N\O[C@@H](COc2ccc3c(c2)CN(/C(=N\[C@@H]2CCCNC2)N[C@@H]2CCCNC2)C3)C(=O)O)c2csc(N)n2)C(=O)N1OS(=O)(=O)O	4 µg/mL
CC1(C)[C@H](NC(=O)/C(=N\O[C@@H](COc2ccc3c(c2)CN(C(=N)NCCCCN)C3)C(=O)O)c2csc(N)n2)C(=O)N1OS(=O)(=O)O	8 µg/mL
CC1(C)[C@H](NC(=O)/C(=N\O[C@@H](COc2ccc3c(c2)CN(C(=N)NCCN)C3)C(=O)O)c2csc(N)n2)C(=O)N1OS(=O)(=O)O	4 µg/mL
C[C@@H](O)[C@H]1C(=O)N2C(C(=O)O)=C(S[C@@H]3CN[C@H](C(=O)N(C)C)C3)[C@H](C)[C@H]12 [Meropenem, reference compound]	32 µg/mL
CC1(C)[C@H](NC(=O)/C(=N\O[C@@H](COc2ccc3c(c2)CN(C(=N)NOCCN)C3)C(=O)O)c2csc(N)n2)C(=O)N1OS(=O)(=O)O	8 µg/mL
CC1(C)[C@H](NC(=O)/C(=N\O[C@@H](COc2ccc3c(c2)CN(C(=N)N[C@@H]2CCCNC2)C3)C(=O)O)c2csc(N)n2)C(=O)N1OS(=O)(=O)O	4 µg/mL
C[C@H]1[C@H](NC(=O)/C(=N\OC(C)(C)C(=O)O)c2csc(N)n2)C(=O)N1S(=O)(=O)O [Aztreonam, reference compound]	32 µg/mL
CC1(C)[C@H](NC(=O)/C(=N\O[C@@H](COc2ccc3c(c2)CN(C(=N)N(CCN)CCN)C3)C(=O)O)c2csc(N)n2)C(=O)N1OS(=O)(=O)O	> 16 µg/mL

---

system: Pseudomonas aeruginosa W28; assay: MIC on clinically isolated bacteria; format: cell-based; settings: read-out: MIC
assay endpoint: MIC (µg/mL)

molecule	assay endpoint	endpoint value
CC1(C)[C@H](NC(=O)/C(=N\O[C@@H](COc2ccc3c(c2)CN(/C(=N\[C@@H]2CCCNC2)N[C@@H]2CCCNC2)C3)C(=O)O)c2csc(N)n2)C(=O)N1OS(=O)(=O)O	MIC	4
CC1(C)[C@H](NC(=O)/C(=N\O[C@@H](COc2ccc3c(c2)CN(C(=N)NOCCN)C3)C(=O)O)c2csc(N)n2)C(=O)N1OS(=O)(=O)O	MIC	8
C[C@@H](O)[C@H]1C(=O)N2C(C(=O)O)=C(S[C@@H]3CN[C@H](C(=O)N(C)C)C3)[C@H](C)[C@H]12 [Meropenem, reference compound]	MIC	32
CC1(C)[C@H](NC(=O)/C(=N\O[C@@H](COc2ccc3c(c2)CN(C(=N)NCCN)C3)C(=O)O)c2csc(N)n2)C(=O)N1OS(=O)(=O)O	MIC	4
C[C@H]1[C@H](NC(=O)/C(=N\OC(C)(C)C(=O)O)c2csc(N)n2)C(=O)N1S(=O)(=O)O [Aztreonam, reference compound]	MIC	32
